These measurements were taken from ChEMBL document CHEMBL1148480.

- testTarget: Orexin receptor type 2 (Homo sapiens, UniProt O43614)
- Sequence (O43614 whole entry): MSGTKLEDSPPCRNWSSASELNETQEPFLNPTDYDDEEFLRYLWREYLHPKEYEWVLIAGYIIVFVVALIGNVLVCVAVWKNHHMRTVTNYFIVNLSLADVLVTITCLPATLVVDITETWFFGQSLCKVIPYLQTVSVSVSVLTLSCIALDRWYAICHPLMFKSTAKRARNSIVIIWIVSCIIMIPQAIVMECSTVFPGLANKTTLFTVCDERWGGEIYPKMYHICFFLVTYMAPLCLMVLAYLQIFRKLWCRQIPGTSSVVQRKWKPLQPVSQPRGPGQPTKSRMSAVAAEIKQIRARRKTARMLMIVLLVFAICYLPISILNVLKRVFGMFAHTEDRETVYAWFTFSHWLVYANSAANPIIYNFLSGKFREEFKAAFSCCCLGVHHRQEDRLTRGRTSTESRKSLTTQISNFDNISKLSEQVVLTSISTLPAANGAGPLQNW
- assayDetails: Effective agonist concentration to the human Orexin receptor type 2 was determined using the Xlfit program
Residues, ends and D or L forms follow the SMILES beside them.
measuredProperty: EC50

In the examples that follow, each entry is paired with its recorded EC50.
CC(C)C[C@H](NC(=O)CNC(=O)[C@@H]1CCCN1C(=O)[C@@H]1CCCN1C(=O)CNC(=O)[C@H](CO)NC(=O)[C@@H](N)CCCN=C(N)N)C(=O)N[C@@H](CCC(N)=O)C(=O)NCC(=O)N[C@@H](CCCN=C(N)N)C(=O)N[C@@H](CC(C)C)C(=O)N[C@@H](CCC(N)=O)C(=O)N[C@@H](CCCN=C(N)N)C(=O)O (H-RSGPPGLQGRLQR-OH) = > 1000 µM
CC[C@H](C)[C@H](NC(=O)CNC(=O)[C@H](C)NC(=O)[C@H](C)NC(=O)[C@H](Cc1c[nH]cn1)NC(=O)[C@H](CC(N)=O)NC(=O)CNC(=O)[C@H](C)N)C(=O)N[C@@H](CC(C)C)C(=O)N[C@H](C(=O)N[C@@H](CC(C)C)C(=O)O)[C@@H](C)O (H-AGNHAAGILTL-OH) = > 1000 µM
CC(C)C[C@H](NC(=O)CNC(=O)[C@@H]1CCCN1C(=O)[C@@H]1CCCN1C(=O)CNC(=O)[C@H](CO)NC(=O)[C@@H](N)CCCN=C(N)N)C(=O)N[C@@H](CCC(N)=O)C(=O)NCC(=O)N[C@@H](CCCN=C(N)N)C(=O)O (H-RSGPPGLQGR-OH) = > 1000 µM
CC[C@H](C)[C@H](NC(=O)CNC(=O)[C@H](C)NC(=O)[C@H](C)NC(=O)[C@H](Cc1cnc[nH]1)NC(=O)[C@H](CC(N)=O)NC(=O)CNC(=O)[C@H](CO)NC(=O)[C@H](C)NC(=O)[C@H](CCC(N)=O)NC(=O)[C@H](CC(C)C)NC(=O)[C@H](CC(C)C)NC(=O)[C@H](CCCNC(=N)N)NC(=O)[C@H](CCC(N)=O)NC(=O)[C@H](CC(C)C)NC(=O)[C@@H](N)CCCNC(=N)N)C(=O)N[C@@H](CC(C)C)C(=O)N[C@H](C(=O)N[C@@H](CCSC)C(=O)O)[C@@H](C)O (H-RLQRLLQASGNHAAGILTM-OH) = 0.57 µM
CC[C@H](C)[C@H](NC(=O)CNC(=O)[C@H](C)NC(=O)[C@H](C)NC(=O)[C@H](Cc1c[nH]cn1)NC(=O)[C@H](CC(N)=O)NC(=O)CN)C(=O)N[C@@H](CC(C)C)C(=O)N[C@H](C(=O)N[C@@H](CC(C)C)C(=O)O)[C@@H](C)O (H-GNHAAGILTL-OH) = > 1000 µM

Turning now to a further record.
Q: Write down the reported EC50 of CC[C@H](C)[C@H](NC(=O)CNC(=O)[C@H](C)NC(=O)[C@H](C)NC(=O)[C@H](Cc1cnc[nH]1)NC(=O)[C@@H](N)CC(N)=O)C(=O)N[C@@H](CC(C)C)C(=O)N[C@H](C(=O)N[C@@H](CC(C)C)C(=O)O)[C@@H](C)O (H-NHAAGILTL-OH) , test system: Orexin receptor type 2 (Homo sapiens, UniProt O43614).
Result: > 1000 µM
